biological target: Histone deacetylase 1 (Homo sapiens, UniProt Q13547)
Sequence (Q13547 whole entry): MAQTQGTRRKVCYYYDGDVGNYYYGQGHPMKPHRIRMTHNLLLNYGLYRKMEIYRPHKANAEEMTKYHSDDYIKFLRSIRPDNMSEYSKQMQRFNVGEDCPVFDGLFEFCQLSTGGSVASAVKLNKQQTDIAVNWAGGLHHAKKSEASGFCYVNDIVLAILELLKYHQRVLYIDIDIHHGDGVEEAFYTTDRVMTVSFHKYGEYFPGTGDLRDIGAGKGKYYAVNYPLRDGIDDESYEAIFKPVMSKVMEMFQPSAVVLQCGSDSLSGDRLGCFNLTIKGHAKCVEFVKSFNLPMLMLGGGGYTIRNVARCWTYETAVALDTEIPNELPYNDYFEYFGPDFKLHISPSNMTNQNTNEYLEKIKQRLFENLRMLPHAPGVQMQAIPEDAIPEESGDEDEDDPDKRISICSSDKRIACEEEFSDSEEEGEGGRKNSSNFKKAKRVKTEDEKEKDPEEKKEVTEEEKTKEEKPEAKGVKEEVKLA
reported_endpoint: IC50 (nM)

* CC(C)(C)OC(=O)N[C@@H](CCCCCS)C(=O)NC1CCCCCC1 | 900
